# EXPERIMENT_NOTES: Oral bioavailability in Sprague-Dawley rat at 3 mg/kg using SDD formulation
# Assay type: ADME, organism-based
# COND: in vivo
MEASURE_NAME: bioavailability (%)
Give just the number in %; leave the unit off.

**Query** Entry Cn1cc(-c2cn3nccc3c(-c3cnn([C@]4(CC#N)C[C@@H](C#N)C4)c3)n2)cn1 [ROPSACITINIB] has what bioavailability?
**Result** 58

###

This listing pairs compounds with measured pIC50.
# TARGET_ENTITY: Tyrosine-protein kinase JAK2 (Homo sapiens, UniProt O60674)
# Sequence (O60674 whole entry, the tested form may be a part): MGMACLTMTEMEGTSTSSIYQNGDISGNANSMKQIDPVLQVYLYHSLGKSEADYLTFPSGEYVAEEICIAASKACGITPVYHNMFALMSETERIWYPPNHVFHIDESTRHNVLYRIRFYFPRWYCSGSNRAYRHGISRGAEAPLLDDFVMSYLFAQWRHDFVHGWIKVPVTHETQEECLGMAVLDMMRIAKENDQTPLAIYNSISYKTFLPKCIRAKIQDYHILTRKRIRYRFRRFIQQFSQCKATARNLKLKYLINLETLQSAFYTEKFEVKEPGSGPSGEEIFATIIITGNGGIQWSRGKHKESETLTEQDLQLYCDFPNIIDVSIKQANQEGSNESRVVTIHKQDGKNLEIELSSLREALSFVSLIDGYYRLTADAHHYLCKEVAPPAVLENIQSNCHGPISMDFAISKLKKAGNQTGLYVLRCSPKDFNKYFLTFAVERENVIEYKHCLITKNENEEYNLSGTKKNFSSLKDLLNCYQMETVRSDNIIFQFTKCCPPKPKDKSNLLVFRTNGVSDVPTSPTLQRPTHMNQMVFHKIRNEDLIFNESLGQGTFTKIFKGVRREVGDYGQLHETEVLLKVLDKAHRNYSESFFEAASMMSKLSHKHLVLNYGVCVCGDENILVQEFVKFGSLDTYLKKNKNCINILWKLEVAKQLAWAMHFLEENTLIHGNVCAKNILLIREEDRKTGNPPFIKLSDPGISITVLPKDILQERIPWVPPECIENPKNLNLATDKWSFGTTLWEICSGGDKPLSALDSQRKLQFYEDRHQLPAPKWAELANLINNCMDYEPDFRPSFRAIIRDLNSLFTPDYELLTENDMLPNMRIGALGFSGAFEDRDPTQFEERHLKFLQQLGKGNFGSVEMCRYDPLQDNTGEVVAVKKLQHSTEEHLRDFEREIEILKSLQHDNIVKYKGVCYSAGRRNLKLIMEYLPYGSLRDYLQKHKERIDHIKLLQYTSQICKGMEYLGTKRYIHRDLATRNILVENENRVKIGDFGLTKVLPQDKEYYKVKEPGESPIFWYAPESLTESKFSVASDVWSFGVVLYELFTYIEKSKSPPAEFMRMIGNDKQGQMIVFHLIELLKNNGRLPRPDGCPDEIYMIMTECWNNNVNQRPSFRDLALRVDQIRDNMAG
# EXPERIMENT_NOTES: Inhibition of recombinant human GST-tagged JAK2 catalytic domain (809 to 1153+9 residues) expressed in baculovirus expression system using FITC-KGGEEEEYFELVKK as substrate in presence of ATP at Km by microfluidic assay
Recall that pIC50 is obtained by taking minus log10 of the concentration measured in molar.

Some compounds with recorded pIC50:
SUBSTANCE_SMILES | pIC50
Cn1ccc(-c2cn3nccc3c(-c3cnn([C@]4(CC#N)C[C@@H](C#N)C4)c3)n2)n1 | 6.33
N#CC[C@]1(n2cc(-c3nc(-c4cc[nH]n4)cn4nccc34)cn2)C[C@@H](C#N)C1 | 7.51
Cn1cc(-c2cn3nccc3c(-c3cnn(C4(CC#N)CN(CC5CC5)C4)c3)n2)cn1 | 6.73

**Query** Entry CC(=O)N1CC(CC#N)(n2cc(-c3nc(-c4cnn(C)c4)cn4nccc34)cn2)C1 has what pIC50?
**Result** 5.76

**Query** Entry CCN1CC(CC#N)(n2cc(-c3nc(-c4cnn(C)c4)cn4nccc34)cn2)C1 has what pIC50?
**Result** 6.46
